biological target: UniProt P11597; experiment: Tested for inhibition of [3H]cholesteryl linoleate(CE) transfer from donor HDL to acceptor LDL driven by recombinant human Cholesteryl ester transfer protein
IC50 less than 6 µM is YES; IC50 greater than or equal to 6 µM is NO.

CCCCCCCCCCCCCc1n[nH]c(=S)n1-c1ccccc1 YES
CCCCCCCCCCCCCCP(=O)(O)OCc1ccccc1 YES
CCCCCCCCCCCCCCCP(=O)(O)OCc1ccccc1 YES
CCCCCCCCCCCCCCP(=O)(O)OCc1ccoc1 NO
CCCCCCCCCCCCCCP(=O)(O)Oc1ccc2ccccc2c1 NO

----------
molecular target: Cholesteryl ester transfer protein (Homo sapiens, UniProt P11597); assay: Tested for inhibition of [3H]cholesteryl linoleate(CE) transfer from donor HDL to acceptor LDL driven by recombinant human cholesteryl ester transfer protein
Sequence (P11597 whole entry): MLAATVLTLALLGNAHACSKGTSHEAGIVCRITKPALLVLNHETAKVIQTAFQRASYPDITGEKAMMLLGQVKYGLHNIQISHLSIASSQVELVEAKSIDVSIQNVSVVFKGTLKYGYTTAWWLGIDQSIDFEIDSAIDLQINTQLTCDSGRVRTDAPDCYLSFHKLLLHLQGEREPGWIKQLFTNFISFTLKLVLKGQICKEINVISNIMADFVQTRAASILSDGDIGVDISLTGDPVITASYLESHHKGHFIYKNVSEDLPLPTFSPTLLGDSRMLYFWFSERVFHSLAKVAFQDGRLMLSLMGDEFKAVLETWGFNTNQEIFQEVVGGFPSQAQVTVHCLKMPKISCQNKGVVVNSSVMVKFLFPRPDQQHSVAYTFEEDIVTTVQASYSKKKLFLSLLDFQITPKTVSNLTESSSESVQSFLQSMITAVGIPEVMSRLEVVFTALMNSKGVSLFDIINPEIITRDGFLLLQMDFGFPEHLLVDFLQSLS
Let's look at some compounds and their measured IC50.
Observable: IC50 (µM)

CCCCCCCCCCCCCCCCCCP(=O)(O)CCc1ccccc1 14
CCCCCCCCCCCCCCCCCCP(=O)(O)OCc1ccccc1 2
